# PROCEDURE TEXT: Oral bioavailability in Sprague-Dawley rat at 10 mg/kg
# Type: ADME, organism-based
# STUDY CONDITIONS: in vivo
Each entry below carries its reported bioavailability.
Please state the figure in %; there is no need to write the unit.

Below: 3 compounds and their reported bioavailability.
INSERT INTO measurements (smiles_repr, measured_parameter, observed_result) VALUES
  ('O=C[C@H](C[C@@H]1CCNC1=O)NC(=O)[C@@H]1[C@H]2CCC[C@H]2CN1C(=O)COc1ccc(Cl)cc1', 'bioavailability', 7.2),
  ('O=C[C@H](C[C@@H]1CCNC1=O)NC(=O)[C@@H]1[C@H]2CCC[C@H]2CN1C(=O)COc1ccc(Cl)c(Cl)c1', 'bioavailability', 5.1),
  ('CC1(C)[C@@H]2[C@@H](C(=O)N[C@H](C=O)C[C@@H]3CCNC3=O)N(C(=O)COc3ccc(Cl)cc3)C[C@@H]21', 'bioavailability', 4.8);

Query: What bioavailability value was documented for this compound, CC1(C)[C@@H]2[C@@H](C(=O)N[C@H](C=O)C[C@@H]3CCNC3=O)N(C(=O)COc3ccc(Cl)cc3Cl)C[C@@H]21 ?
Result: 4.1

Query: // returns reported bioavailability for input O=C1NCC[C@H]1C[C@H](NC(=O)[C@@H]1[C@H]2CCC[C@H]2CN1C(=O)COc1ccc(Cl)cc1Cl)C(=O)CF
Result: 55.1

Source: ChEMBL document CHEMBL5512603
